tgt: OAT3 (Homo sapiens, UniProt Q8TCC7)
Sequence (Q8TCC7 whole entry): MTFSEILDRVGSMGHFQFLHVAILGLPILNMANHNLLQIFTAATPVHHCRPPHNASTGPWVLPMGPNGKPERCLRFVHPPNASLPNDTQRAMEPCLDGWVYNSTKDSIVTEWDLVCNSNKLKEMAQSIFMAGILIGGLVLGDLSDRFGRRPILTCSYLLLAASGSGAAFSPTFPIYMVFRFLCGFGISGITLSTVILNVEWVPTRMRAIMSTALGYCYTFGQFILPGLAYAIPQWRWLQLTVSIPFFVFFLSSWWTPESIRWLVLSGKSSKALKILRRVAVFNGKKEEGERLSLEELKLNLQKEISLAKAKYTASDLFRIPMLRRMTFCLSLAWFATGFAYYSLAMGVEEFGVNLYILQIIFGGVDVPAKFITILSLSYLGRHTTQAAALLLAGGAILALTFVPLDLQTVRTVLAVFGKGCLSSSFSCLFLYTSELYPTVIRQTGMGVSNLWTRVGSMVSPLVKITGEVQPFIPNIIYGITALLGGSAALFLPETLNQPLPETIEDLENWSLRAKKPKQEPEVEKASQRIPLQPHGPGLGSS
assay_overview: in vitro
condition_set: HEK293 cells transiently expressing OAT3, probe catalposide 10 μM

# molecule, output_unit, inhibition at 10 min, 100 μM
measured = [
    ("CN/C(=N/CCSCc1nc[nH]c1C)NC#N", "%", 70.4),
]

----------
tgt: UniProtKB P08183
Sequence (P08183 whole entry): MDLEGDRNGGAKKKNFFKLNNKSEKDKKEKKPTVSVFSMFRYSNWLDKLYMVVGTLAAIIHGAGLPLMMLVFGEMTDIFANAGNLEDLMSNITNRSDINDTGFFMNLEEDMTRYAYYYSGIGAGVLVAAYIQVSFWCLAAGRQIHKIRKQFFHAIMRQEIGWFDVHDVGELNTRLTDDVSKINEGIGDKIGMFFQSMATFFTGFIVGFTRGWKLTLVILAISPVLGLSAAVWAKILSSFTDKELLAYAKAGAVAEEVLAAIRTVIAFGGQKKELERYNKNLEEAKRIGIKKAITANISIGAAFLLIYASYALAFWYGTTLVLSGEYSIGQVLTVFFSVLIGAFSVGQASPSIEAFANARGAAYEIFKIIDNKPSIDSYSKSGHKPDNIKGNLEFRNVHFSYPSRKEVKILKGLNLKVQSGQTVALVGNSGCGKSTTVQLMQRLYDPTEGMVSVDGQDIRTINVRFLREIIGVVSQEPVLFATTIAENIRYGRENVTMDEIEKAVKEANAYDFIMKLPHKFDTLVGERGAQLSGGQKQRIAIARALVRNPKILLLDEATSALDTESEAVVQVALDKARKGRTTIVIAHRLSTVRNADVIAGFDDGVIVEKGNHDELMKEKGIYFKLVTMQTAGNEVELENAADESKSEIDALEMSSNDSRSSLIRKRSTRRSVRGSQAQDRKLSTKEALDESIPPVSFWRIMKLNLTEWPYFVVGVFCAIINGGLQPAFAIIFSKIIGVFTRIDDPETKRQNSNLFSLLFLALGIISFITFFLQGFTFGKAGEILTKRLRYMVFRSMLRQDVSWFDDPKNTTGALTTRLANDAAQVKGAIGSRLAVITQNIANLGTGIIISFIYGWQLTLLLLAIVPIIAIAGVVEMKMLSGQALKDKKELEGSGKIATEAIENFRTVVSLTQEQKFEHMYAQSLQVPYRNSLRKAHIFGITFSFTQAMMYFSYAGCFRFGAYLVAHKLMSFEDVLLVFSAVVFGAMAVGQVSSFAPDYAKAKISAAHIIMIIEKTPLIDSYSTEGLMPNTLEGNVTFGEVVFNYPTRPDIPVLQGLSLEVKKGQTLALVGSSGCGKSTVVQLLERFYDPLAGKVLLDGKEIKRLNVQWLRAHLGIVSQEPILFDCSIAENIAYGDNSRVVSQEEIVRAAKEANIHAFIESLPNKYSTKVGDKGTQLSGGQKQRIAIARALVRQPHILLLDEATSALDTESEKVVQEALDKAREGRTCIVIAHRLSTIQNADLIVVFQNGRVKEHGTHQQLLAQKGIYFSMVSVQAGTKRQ
assay_overview: A-to-B and B-to-A transport in LLC-PK1 cells overexpressing P-gp
Type: in vitro ADME
condition_set: pig, LLC-PK1, Net efflux ratio, probe substrate, LLC-PK1-MDR1 compared with LLC-PK1-mock cells

# molecule, efflux ratio at 1 h
rows = [
    ("C[C@H]1O[C@@H](O[C@H]2[C@@H](O)C[C@H](O[C@H]3[C@@H](O)C[C@H](O[C@H]4CC[C@@]5(C)[C@H](CC[C@@H]6[C@@H]5C[C@@H](O)[C@]5(C)[C@@H](C7=CC(=O)OC7)CC[C@]65O)C4)O[C@@H]3C)O[C@@H]2C)C[C@H](O)[C@@H]1O", 5.7),
]
